protocol: HeLa cytotoxicity
Format: cell-based
assayContext: human, HeLa cells
Some compounds, each annotated with its measured CC50 at 48 h.

[
  {
    "itemSmiles": "CC(C)[C@H](C)Nc1nc(-c2cccs2)nc(Cl)c1-c1c(F)cc(F)cc1F",
    "resultUnit": "µM",
    "qualifierSymbol": "=",
    "CC50 at 48 h": 8.78
  },
  {
    "itemSmiles": "C[C@H](Nc1nc(-c2cccs2)ncc1-c1c(F)cc(F)cc1F)C(F)(F)F",
    "resultUnit": "µM",
    "qualifierSymbol": ">",
    "CC50 at 48 h": 100
  },
  {
    "itemSmiles": "C[C@H](Nc1nc(-c2nccs2)nc(Cl)c1-c1c(F)cc(F)cc1F)C(F)(F)F",
    "resultUnit": "µM",
    "qualifierSymbol": "=",
    "CC50 at 48 h": 0.006
  },
  {
    "itemSmiles": "CC1(CNc2nc(-c3cnccn3)nc(Cl)c2-c2c(F)cc(F)cc2F)N=N1",
    "resultUnit": "µM",
    "qualifierSymbol": "=",
    "CC50 at 48 h": 0.04
  },
  {
    "itemSmiles": "CC1(CNc2nc(-c3cccs3)nc(Cl)c2-c2c(F)cc(F)cc2F)N=N1",
    "resultUnit": "µM",
    "qualifierSymbol": "=",
    "CC50 at 48 h": 3.89
  },
  {
    "itemSmiles": "C[C@@H](Nc1nc(-c2cccs2)nc(Cl)c1-c1c(F)cc(F)cc1F)C(F)(F)F",
    "resultUnit": "µM",
    "qualifierSymbol": "=",
    "CC50 at 48 h": 27.7
  },
  {
    "itemSmiles": "CC(C)[C@@H](C)Nc1nc(-c2cccs2)nc(Cl)c1-c1c(F)cc(F)cc1F",
    "resultUnit": "µM",
    "qualifierSymbol": "=",
    "CC50 at 48 h": 17.4
  },
  {
    "itemSmiles": "C[C@H](Nc1nc(-c2cccs2)nc(Cl)c1-c1c(F)cc(F)cc1F)C(F)(F)F",
    "resultUnit": "µM",
    "qualifierSymbol": "=",
    "CC50 at 48 h": 1.66
  }
]

====

Tested on: S. mansoni somules
protocol: In vitro phenotypic screen of S. mansoni somules
Type: cell-based, Schistosoma mansoni
assayContext: 10 μM, 24 h
parameterMeasured: Phenotypic descriptors, somules (10 μM) 24 h

[
  {
    "itemSmiles": "CC1(CNc2nc(-c3cnccn3)nc(Cl)c2-c2c(F)cc(F)cc2F)N=N1",
    "tgt": "S. mansoni somules",
    "measuredResult": "R, deg"
  },
  {
    "itemSmiles": "CC1(CNc2nc(-c3cccs3)nc(Cl)c2-c2c(F)cc(F)cc2F)N=N1",
    "tgt": "S. mansoni somules",
    "measuredResult": "R, I"
  },
  {
    "itemSmiles": "C[C@H](Nc1nc(-c2cccs2)ncc1-c1c(F)cc(F)cc1F)C(F)(F)F",
    "tgt": "S. mansoni somules",
    "measuredResult": "R, S"
  },
  {
    "itemSmiles": "C[C@H](Nc1nc(-c2ccc3ccccc3n2)nc(Cl)c1-c1c(F)cc(F)cc1F)C(F)(F)F",
    "tgt": "S. mansoni somules",
    "measuredResult": "R, deg"
  }
]

====

Test system: adult S. mansoni
protocol: WormAssay, average adult worm motility
Assay type: cell-based, Schistosoma mansoni
assayContext: 5 μM, 5 h; DMSO control 104.1 ± 24.4
Could you please mark 1 for values of WormAssay (average adult worm movement ± SD) below 80 and -1 for values at or above it?

[
  {
    "compound": "C[C@H](Nc1nc(-c2cccs2)nc(Cl)c1-c1c(F)cc(F)cc1F)C(F)(F)F",
    "assignedClass": 1
  },
  {
    "compound": "C[C@H](Nc1cc(Cl)nc(-c2cccs2)n1)C(F)(F)F",
    "assignedClass": -1
  },
  {
    "compound": "CC1(CNc2nc(-c3cnccn3)nc(Cl)c2-c2c(F)cc(F)cc2F)N=N1",
    "assignedClass": -1
  },
  {
    "compound": "CC1(CNc2nc(-c3cccs3)nc(Cl)c2-c2c(F)cc(F)cc2F)N=N1",
    "assignedClass": 1
  },
  {
    "compound": "C[C@@H](Nc1nc(-c2cccs2)nc(Cl)c1-c1c(F)cc(F)cc1F)C(F)(F)F",
    "assignedClass": 1
  },
  {
    "compound": "O=C(C1CCCCC1)N1CC(=O)N2CCc3ccccc3C2C1 (stereo not shown) [PZQ, praziquantel, reference compound]",
    "assignedClass": 1
  },
  {
    "compound": "C[C@H](Nc1nc(-c2ccc3ccccc3n2)nc(Cl)c1-c1c(F)cc(F)cc1F)C(F)(F)F",
    "assignedClass": 1
  },
  {
    "compound": "CC(C)[C@H](C)Nc1nc(-c2cccs2)nc(Cl)c1-c1c(F)cc(F)cc1F",
    "assignedClass": 1
  },
  {
    "compound": "CC(C)[C@@H](C)Nc1nc(-c2cccs2)nc(Cl)c1-c1c(F)cc(F)cc1F",
    "assignedClass": 1
  }
]

====

System: S. mansoni somules
protocol: In vitro phenotypic screen of S. mansoni somules
Format: cell-based, Schistosoma mansoni
assayContext: 10 μM, 24 h
parameterMeasured: Phenotypic descriptors, somules (10 μM) 24 h

[
  {
    "itemSmiles": "CC(C)[C@H](C)Nc1nc(-c2cccs2)nc(Cl)c1-c1c(F)cc(F)cc1F",
    "measuredResult": "R, I"
  },
  {
    "itemSmiles": "C[C@@H](Nc1nc(-c2cccs2)nc(Cl)c1-c1c(F)cc(F)cc1F)C(F)(F)F",
    "measuredResult": "R, I"
  },
  {
    "itemSmiles": "CC(C)[C@@H](C)Nc1nc(-c2cccs2)nc(Cl)c1-c1c(F)cc(F)cc1F",
    "measuredResult": "R, I"
  },
  {
    "itemSmiles": "C[C@H](Nc1nc(-c2ccco2)nc(Cl)c1-c1c(F)cc(F)cc1F)C(F)(F)F",
    "measuredResult": "N"
  },
  {
    "itemSmiles": "Fc1cc(F)c(-c2cnc(-c3cccs3)nc2Cl)c(F)c1",
    "measuredResult": "R, S"
  }
]

====

protocol: HEK293 cytotoxicity
Format: cell-based
assayContext: human, HEK293 cells (method text: HEK 293T)

[
  {
    "itemSmiles": "CC1(CNc2nc(-c3cccs3)nc(Cl)c2-c2c(F)cc(F)cc2F)N=N1",
    "qualifierSymbol": "=",
    "CC50 at 48 h (nM)": 1270
  },
  {
    "itemSmiles": "C[C@H](Nc1nc(-c2nccs2)nc(Cl)c1-c1c(F)cc(F)cc1F)C(F)(F)F",
    "qualifierSymbol": "=",
    "CC50 at 48 h (nM)": 8
  },
  {
    "itemSmiles": "C[C@H](Nc1nc(-c2cccs2)ncc1-c1c(F)cc(F)cc1F)C(F)(F)F",
    "qualifierSymbol": ">",
    "CC50 at 48 h (nM)": 50000
  },
  {
    "itemSmiles": "C[C@H](Nc1nc(-c2cccs2)nc(Cl)c1-c1c(F)cc(F)cc1F)C(F)(F)F",
    "qualifierSymbol": "=",
    "CC50 at 48 h (nM)": 1270
  }
]

====

Overview of reported CC50 at 48 h across a group of compounds:
protocol: HEK293 cytotoxicity
Assay type: cell-based
assayContext: human, HEK293 cells (method text: HEK 293T)

[
  {
    "itemSmiles": "CC1(CNc2nc(-c3cnccn3)nc(Cl)c2-c2c(F)cc(F)cc2F)N=N1",
    "CC50 at 48 h, µM": 0.05
  },
  {
    "itemSmiles": "C[C@@H](Nc1nc(-c2cccs2)nc(Cl)c1-c1c(F)cc(F)cc1F)C(F)(F)F",
    "CC50 at 48 h, µM": 29.4
  },
  {
    "itemSmiles": "CC(C)[C@H](C)Nc1nc(-c2cccs2)nc(Cl)c1-c1c(F)cc(F)cc1F",
    "CC50 at 48 h, µM": 29.1
  },
  {
    "itemSmiles": "CC(C)[C@@H](C)Nc1nc(-c2cccs2)nc(Cl)c1-c1c(F)cc(F)cc1F",
    "CC50 at 48 h, µM": 26.8
  }
]

Where do these numbers come from? They come from paper PMC8641298.
